Reference source for all entries: patent US20250297004A1

# TARGET OR SYSTEM: T1, human Nectin-4 (Homo sapiens, UniProt Q96NY8)
# T1 sequence (Q96NY8 32-510): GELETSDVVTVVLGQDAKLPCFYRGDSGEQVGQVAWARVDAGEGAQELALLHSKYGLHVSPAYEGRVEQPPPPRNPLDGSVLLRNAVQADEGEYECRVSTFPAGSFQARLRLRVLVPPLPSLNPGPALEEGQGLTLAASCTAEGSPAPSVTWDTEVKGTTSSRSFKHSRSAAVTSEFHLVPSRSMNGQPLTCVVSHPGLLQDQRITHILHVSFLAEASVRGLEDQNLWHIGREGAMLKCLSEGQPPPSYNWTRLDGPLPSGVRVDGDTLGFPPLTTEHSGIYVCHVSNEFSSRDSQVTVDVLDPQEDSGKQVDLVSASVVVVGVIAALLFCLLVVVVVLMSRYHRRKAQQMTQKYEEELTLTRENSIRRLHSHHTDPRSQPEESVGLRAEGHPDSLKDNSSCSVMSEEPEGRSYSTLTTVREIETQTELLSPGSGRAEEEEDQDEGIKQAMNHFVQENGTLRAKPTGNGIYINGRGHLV
# EXPERIMENT SUMMARY: Binding to human Nectin-4 by SPR
# CONDITION CONTEXT: SPR dissociation constant; second set (Table 7)
molecules and their reported kd
READOUT: kd (s⁻¹)

[[record]]
molecule = "H6L3 (antibody, human IgG1, V domains shown, human IgG1 isotype) VH: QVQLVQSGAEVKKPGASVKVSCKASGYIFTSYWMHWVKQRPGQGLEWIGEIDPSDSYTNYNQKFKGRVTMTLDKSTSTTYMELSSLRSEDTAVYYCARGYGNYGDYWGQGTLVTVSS VL: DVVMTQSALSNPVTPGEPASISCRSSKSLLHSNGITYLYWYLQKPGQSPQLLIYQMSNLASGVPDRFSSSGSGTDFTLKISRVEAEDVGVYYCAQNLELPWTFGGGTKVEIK"
u = "s⁻¹"
val = 0.0051

[[record]]
molecule = "H4L2 (antibody, human IgG1, V domains shown, human IgG1 isotype) VH: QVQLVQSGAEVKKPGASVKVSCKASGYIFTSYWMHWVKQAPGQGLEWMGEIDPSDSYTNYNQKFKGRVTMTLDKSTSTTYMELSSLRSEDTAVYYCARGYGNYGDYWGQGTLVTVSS VL: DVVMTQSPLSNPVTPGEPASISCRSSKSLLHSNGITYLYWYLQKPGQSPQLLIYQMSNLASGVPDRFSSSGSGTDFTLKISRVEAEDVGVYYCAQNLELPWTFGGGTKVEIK"
u = "s⁻¹"
val = 0.0054

[[record]]
molecule = "H6L2 (antibody, human IgG1, V domains shown, human IgG1 isotype) VH: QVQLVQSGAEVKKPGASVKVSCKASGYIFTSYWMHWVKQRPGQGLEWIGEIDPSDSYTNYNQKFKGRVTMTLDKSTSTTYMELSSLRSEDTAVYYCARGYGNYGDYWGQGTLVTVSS VL: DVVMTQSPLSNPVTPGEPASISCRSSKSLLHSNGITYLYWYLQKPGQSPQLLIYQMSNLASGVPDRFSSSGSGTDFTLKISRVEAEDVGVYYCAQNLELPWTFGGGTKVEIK"
u = "s⁻¹"
val = 0.0058

